Provenance of the data: PubChem BioAssay AID1745844

System: rodent lifetime carcinogenesis bioassay, tumor incidence TD50
Assay: carcinogenic potency in animals, long-term in vivo studies, CPDB compilation (AID 1745844)
Settings: rat; strain Sprague-Dawley Spartan; females; inhaled; site: mammary gland; lesion: benign tumor; dosed 52 weeks; study length 104 weeks
QUANTITY: TD50

-- ask For the compound ClCCl , give its measured TD50 value.
-- reply 38.1 mg/kg/day

* * *

Tested on: rodent lifetime carcinogenesis bioassay, tumor incidence TD50
Assay: carcinogenic potency in animals, long-term in vivo studies, CPDB compilation (AID 1745844)
Conditions: mouse; strain Swiss albino; females; in feed; site: lung; lesion: adenoma; dosed 152 weeks; study length 152 weeks
QUANTITY: TD50 (mg/kg/day)
Numbers only, in mg/kg/day.

-- ask Specify reported TD50 for the compound shown: COc1cc(CNC(=O)CCCC/C=C/C(C)C)ccc1O
-- reply 225

* * *

System: rodent lifetime carcinogenesis bioassay, tumor incidence TD50
Test: carcinogenic potency in animals, long-term in vivo studies, CPDB compilation (AID 1745844)
Details: mouse; strain B6C3F1; females; in drinking water; site: lung; lesion: several types; types named in the paper; dosed 103 weeks; study length 106 weeks
Calls of active or inactive are those of the source. No rule for the calls is given here.
QUANTITY: TD50

-- ask For OCl , write its TD50.
-- reply 22900 mg/kg/day (inactive)

* * *

Test system: rodent lifetime carcinogenesis bioassay, tumor incidence TD50
Assay: carcinogenic potency in animals, long-term in vivo studies, CPDB compilation (AID 1745844)
Details: mouse; strain Charles River CD1; females; in feed; site: lung; lesion: adenoma; dosed 105 weeks; study length 105 weeks
Active and inactive are the calls of the source. The rule behind the calls is not given here.
QUANTITY: TD50

-- ask # return recorded TD50 for input CC1=C(/C=C/C(C)=C/C=C/C(C)=C/C=C/C=C(C)/C=C/C=C(C)/C=C/C2=C(C)CCCC2(C)C)C(C)(C)CCC1
-- reply 93600 mg/kg/day (inactive)

* * *

System: rodent lifetime carcinogenesis bioassay, tumor incidence TD50
Test: carcinogenic potency in animals, long-term in vivo studies, CPDB compilation (AID 1745844)
Conditions: rat; strain MRC-Wistar; males; in drinking water; site: liver; lesion: hepatocellular adenoma; dosed 78 weeks; study length 110 weeks
QUANTITY: TD50

-- ask Fill in reported TD50 for this entry: CC(C)=NO
-- reply 12.1 mg/kg/day

* * *

Test system: rodent lifetime carcinogenesis bioassay, tumor incidence TD50
Experiment: carcinogenic potency in animals, long-term in vivo studies, CPDB compilation (AID 1745844)
Details: mouse; strain Swiss albino; females; in drinking water; site: lung; lesion: adenocarcinoma; dosed 83 weeks; study length 83 weeks
I'd appreciate it if you could supply TD50 values for the items below.
One number for each entry, in mg/kg/day.

C=CCNNCC=C	78.3

Now turn to the next compound.
-- ask Specify measured TD50 for O=CNNC=O .
-- reply 2170

* * *

Test system: rodent lifetime carcinogenesis bioassay, tumor incidence TD50
Experiment: carcinogenic potency in animals, long-term in vivo studies, CPDB compilation (AID 1745844)
Details: rat; strain MRC; males; in drinking water; site: any site (literature study); lesion: several types; types named in the paper; dosed 75 weeks; study length 104 weeks
Calls of active or inactive are those of the source. How the calls were made is not given here.
Hi there, I'd appreciate the recorded TD50 for every entry that follows.

O=NN1CCCCC1C(=O)O (configuration not stated)	3.82 mg/kg/day (inactive)

With those in mind, consider the next compound.
-- ask Return reported TD50. Input compound: C1CCCNCCC1
-- reply 6.37 mg/kg/day
